- Stated conditions: buffer; pH 7.4; 200.0 µM
# if value of solubility kinetic reaches 0.04 mg/mL, tag T; if it stays below, tag F

molecule=O=C(c1ccc([N+](=O)[O-])cc1Cl)N1CCN(c2ccccn2)CC1 class=T

Exercise: Reported solubility kinetic at or above 0.04 mg/mL? CN1CCN(Cc2cn(C)c3ccccc23)CC1CCO (stereo not given)
Key: F

Exercise: // same read-out, input: O=C(CSc1nc2cc(Cl)ccc2o1)NC1CC1
Key: T

Exercise: // same read-out, input: CCOc1ccc(NC(=S)NCc2cccnc2)cc1
Key: T

Exercise: // same read-out, input: Cn1cccc1C1CCCN1CC(=O)Nc1c(Cl)cc(Cl)cc1Cl (stereo not given)
Key: F

----------
- Stated conditions: buffer; pH 7.4; 200.0 µM
solubility kinetic listing for selected molecules.

Exercise: For the molecule O=C(NCCN1CCN(c2ccc([N+](=O)[O-])cc2)CC1)NCc1ccccc1 , what solubility kinetic is on record?
Key: > 57.5 µg/mL

----------
- Stated conditions: buffer; pH 7.4; 200.0 µM
Quantity name: solubility kinetic

In the examples that follow, each entry is paired with its recorded solubility kinetic.
molecule=O=C(CCC1CCCCC1)NCCN1CCOCC1 quantity_name="solubility kinetic" value_reported="> 40.3 µg/mL"
molecule=COC(=O)c1cc(C(=O)N2CCOCC2)cc([N+](=O)[O-])c1 quantity_name="solubility kinetic" value_reported="> 44.1 µg/mL"
molecule=Cc1cc(NC(=O)CCCn2cnc([N+](=O)[O-])n2)no1 quantity_name="solubility kinetic" value_reported="> 42 µg/mL"
molecule=CCn1c(SCC(N)=O)nnc1-c1ccc2c(c1)OCO2 quantity_name="solubility kinetic" value_reported="> 46 µg/mL"
molecule=CN(CCO)c1nc(N)c(C#N)c(CC#N)c1C#N quantity_name="solubility kinetic" value_reported="> 38.4 µg/mL"

Exercise: For the molecule Cc1c(NS(=O)(=O)c2cccc(C(=O)N3CCC(C(N)=O)CC3)c2)c(=O)n(-c2ccccc2)n1C , what solubility kinetic is on record?
Key: > 74.6 µg/mL

Exercise: // same read-out, input: CN(C(=O)CN1CCN(c2ccc([N+](=O)[O-])cn2)CC1)c1ccccc1
Key: > 53.3 µg/mL

Exercise: // same read-out, input: N#CCCN(Cc1cccnc1)C(=S)NC1CC2C=CC1C2 (stereo unspecified)
Key: > 46.9 µg/mL

----------
- Stated conditions: buffer; pH 7.4; 200.0 µM
solubility kinetic listing for selected molecules.

In the examples that follow, each entry is paired with its recorded solubility kinetic.
molecule=C=CCC(C(=O)OC)(C(=O)OC)c1ccccc1[N+](=O)[O-] value_reported="> 44 µg/mL"
molecule="O=C(O)CC(CC(=O)N1CCN(C(=O)c2ccco2)CC1)c1ccccc1 (stereo unspecified)" value_reported="> 55.6 µg/mL"
molecule=S=c1[nH]cc(-c2ccccc2)[nH]1 value_reported="> 26.4 µg/mL"
molecule=O=S(=O)(c1ccc2oc(=S)[nH]c2c1)N1CCOCC1 value_reported="> 45.1 µg/mL"

Exercise: For the molecule COc1cnc(-c2ccccc2)nc1Oc1ccc(Cl)cc1C , what solubility kinetic is on record?
Key: < 0.3 µg/mL

Exercise: // same read-out, input: Brc1ccc(OCCCOc2cccc3cccnc23)cc1
Key: < 0.8 µg/mL
